target: E. coli dihydrofolate reductase (ecDHFR) (Escherichia coli); assay: biochemical; conditions: NMR, Ile50′ (MFM-sensitive resonance), 50 mM pABG present
recorded_endpoint: Kd (mM)

1. CN(C)C(=N)N=C(N)N	6.89

----------
molecular target: UniProt P0ABQ4; assay: Isothermal titration calorimetry; format: binding; conditions: mean Kd, stated as mean of NMR and ITC displacement studies
pKd: −log10 of the molar value.
recorded_endpoint: pKd

1) CN(C)C(=N)N=C(N)N	1.75

----------
target: E. coli dihydrofolate reductase (ecDHFR) (Escherichia coli, UniProt P0ABQ4); assay: Steady state kinetics of ecDHFR inhibition; format: biochemical; details: Ki, Lineweaver-Burk slope vs inhibitor concentration; NADPH 70 μM; 30 °C; pH 7.0
Sequence (P0ABQ4 whole entry): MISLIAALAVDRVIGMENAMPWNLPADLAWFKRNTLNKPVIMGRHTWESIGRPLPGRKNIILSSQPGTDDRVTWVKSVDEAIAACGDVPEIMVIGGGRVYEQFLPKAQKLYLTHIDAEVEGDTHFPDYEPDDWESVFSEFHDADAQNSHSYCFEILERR
Listed below: Ki values for each entry.
recorded_endpoint: Ki (mM)

1. [H]/N=C(/N)N/C(=N/[H])NCCc1ccccc1	0.17
2. CN(C)C(=N)N=C(N)N	24

----------
molecular target: UniProt:P0ABQ4; details: NMR; Ile94 resonance; no other ligand; pH 7.2 in D2O
recorded_endpoint: Kd (mM)

1. Nc1ccc(C(=O)N[C@@H](CCC(=O)O)C(=O)O)cc1 [pABG, p-aminobenzoyl-L-glutamate]	8

----------
molecular target: E. coli dihydrofolate reductase (ecDHFR) (Escherichia coli, UniProt P0ABQ4); test: biochemical; settings: NMR, Ile61′ (MFM-sensitive resonance), 50 mM pABG present
recorded_endpoint: Kd (mM)

1) CN(C)C(=N)N=C(N)N [Metformin]	5.36

----------
target: E. coli dihydrofolate reductase (ecDHFR) (Escherichia coli, UniProt P0ABQ4); assay: biochemical; conditions: NMR, Ile50′, 50 mM pABG and 2 mM NADP+ present
pKd: −log10 of the molar value.
recorded_endpoint: pKd

1. CN(C)C(=N)N=C(N)N	2.28

----------
target: E. coli dihydrofolate reductase (ecDHFR) (Escherichia coli, UniProt P0ABQ4); conditions: NMR serial titration; no other ligand
recorded_endpoint: Kd (mM)

1) Cc1ccc(C(=O)CCC(=O)O)c(C)c1 [DMBP, 3-(2,4-dimethylbenzoyl)propionate]	5.4

----------
target: E. coli dihydrofolate reductase (ecDHFR) (Escherichia coli); assay: Steady state kinetics of ecDHFR inhibition; assay type: biochemical; conditions: Ki, non-linear global fit of all the data (SAS); NADPH; 30 °C; pH 7.0
recorded_endpoint: Ki (mM)

1) CN(C)C(=N)N=C(N)N	17.9

----------
target: E. coli dihydrofolate reductase (ecDHFR) (Escherichia coli); assay: Isothermal titration calorimetry; assay type: binding; conditions: Kd, ITC direct titration; cofactor NADPH; pH 7.0; 25° C
recorded_endpoint: Kd (µM)

1. [H]/N=C(/N)N/C(=N/[H])NCCc1ccccc1	98

----------
target: E. coli dihydrofolate reductase (ecDHFR) (Escherichia coli, UniProt P0ABQ4); assay type: binding; conditions: 0.1 mM ecDHFR, 5 mM of each ligand (Fenbufen 2 mM), pH 6.8, 25 °C
recorded_endpoint: ILOE signals with metformin (co-binding)

1) CC(C)c1ccc(C(=O)CCC(=O)O)cc1 [4-isopropyl, 3-(4-isopropylbenozyl)propionate]	stronger ILOE signals
2) Cc1cc(C(=O)CCC(=O)O)c(C)c(C)c1C [2,3,4,5-tetramethyl, 3-(2,3,4,5-tetramethylbenozyl)propionate]	stronger ILOE signals

----------
molecular target: E. coli dihydrofolate reductase (ecDHFR) (Escherichia coli, UniProt P0ABQ4); assay: Steady state kinetics of ecDHFR inhibition; assay type: biochemical; details: Lineweaver-Burk slope vs inhibitor concentration; NADPH 70 μM; 30 °C; pH 7.0
recorded_endpoint: Ki (µM)

1. Nc1ccc(C(=O)N[C@@H](CCC(=O)O)C(=O)O)cc1 [pABG, p-aminobenzoyl-L-glutamate]	1800
